- target of assay: IKKε (Homo sapiens (Human))
- Sequence (Q14164 whole entry): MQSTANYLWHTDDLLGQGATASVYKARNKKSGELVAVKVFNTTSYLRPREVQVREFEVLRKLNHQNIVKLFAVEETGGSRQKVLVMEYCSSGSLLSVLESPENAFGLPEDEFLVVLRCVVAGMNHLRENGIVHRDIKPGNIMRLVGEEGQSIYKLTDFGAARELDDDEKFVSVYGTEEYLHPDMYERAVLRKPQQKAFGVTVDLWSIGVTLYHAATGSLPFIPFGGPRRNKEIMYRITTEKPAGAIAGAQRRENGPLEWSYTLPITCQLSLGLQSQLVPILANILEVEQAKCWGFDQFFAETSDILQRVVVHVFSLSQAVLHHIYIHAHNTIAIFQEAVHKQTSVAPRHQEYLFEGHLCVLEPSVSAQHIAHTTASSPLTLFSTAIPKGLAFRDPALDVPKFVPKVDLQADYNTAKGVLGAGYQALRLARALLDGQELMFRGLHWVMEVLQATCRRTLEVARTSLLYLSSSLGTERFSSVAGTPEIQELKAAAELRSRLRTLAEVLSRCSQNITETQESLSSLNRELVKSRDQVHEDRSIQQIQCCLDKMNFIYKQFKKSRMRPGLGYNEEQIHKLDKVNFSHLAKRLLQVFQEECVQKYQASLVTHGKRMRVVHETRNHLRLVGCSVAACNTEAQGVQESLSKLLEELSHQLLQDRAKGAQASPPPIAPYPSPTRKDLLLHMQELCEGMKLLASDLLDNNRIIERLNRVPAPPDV
- protocol summary: TR-FRET kinase assay, IKKε
- experimental context: full length recombinant IKKε 0.3 nM, 2x Km ATP, 1 μM peptide, 240 min at 25° C.; geometric mean of minimum four determinations
- From the text: Biological Assay for TBK1 and IKKs:
Assignment: determine reported log10 IC50 for the given compounds.
Hello, just confirming the data are log10 of IC50 with units of nM.

| compound | reading |
| --- | --- |
| N#Cc1cc(-c2ccnc3[nH]c(C4=CCC5(CC4)OCCO5)cc23)ccc1OC1CCOCC1 [Example 180] | 1.32 |
| CN1CCN(c2ccc(-c3nc4c(-c5ccc(OC6CCN(C(=O)C(F)F)CC6)c(C#N)c5)ncnc4[nH]3)cc2)CC1 [Example 268] | 0.35 |
| N#Cc1cc(-c2ccnc3[nH]c(-c4ccc(N5CCOCC5)cc4)cc23)ccc1N1CC(O)C1 [Example 52] | 0.52 |

// each listed compound needs a value for log10 IC50
1. N#Cc1cc(-c2ccnc3[nH]c(-c4ccc5[nH]ccc5c4)cc23)ccc1OC1CCOCC1 [Example 45]
2. N#Cc1cc(-c2ccnc3[nH]c(-c4ccc(N5CCOCC5)cc4)cc23)ccc1OC1CN(C(=O)CO)C1 [Example 154]

Result:
1.51
2.16
